molecular target: human MCH-2R (human, UniProt Q969V1 1-340); assay: cell-based or functional assay
Sequence (Q969V1 whole entry): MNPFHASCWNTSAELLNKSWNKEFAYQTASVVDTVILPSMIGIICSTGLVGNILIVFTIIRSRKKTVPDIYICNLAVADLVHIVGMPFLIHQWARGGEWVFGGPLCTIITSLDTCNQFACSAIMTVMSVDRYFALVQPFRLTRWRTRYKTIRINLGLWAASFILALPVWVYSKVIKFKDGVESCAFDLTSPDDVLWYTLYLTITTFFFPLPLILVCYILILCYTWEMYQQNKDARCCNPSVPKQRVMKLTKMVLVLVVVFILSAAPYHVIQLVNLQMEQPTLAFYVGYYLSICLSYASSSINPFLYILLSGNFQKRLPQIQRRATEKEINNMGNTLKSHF
endpoint-label: EC50, aequorin bioluminescence (nM)
# number only, unit nM dropped from output

- binder: "XCMLGRVYRPC (D-Arg at position 6, no acetyl; C-terminal amide; disulfide cycle) [SEQ. ID. NO. 4 (D-Arg^6 analog lacking an Ac group)]"
  EC50, aequorin bioluminescence [nM]: 55

Requested field: EC50, aequorin bioluminescence. Item: XCMLGRVYRPC (HELM PEPTIDE1{[ac].[dF].C.M.L.G.R.V.Y.R.P.C.[am]}$PEPTIDE1,PEPTIDE1,3:R3-12:R3$$$V2.0; SMILES CSCC[C@@H]1NC(=O)[C@@H](NC(=O)[C@@H](Cc2ccccc2)NC(C)=O)CSSC[C@@H](C(N)=O)NC(=O)[C@@H]2CCCN2C(=O)[C@H](CCCNC(=N)N)NC(=O)[C@H](Cc2ccc(O)cc2)NC(=O)[C@H](C(C)C)NC(=O)[C@H](CCCNC(=N)N)NC(=O)CNC(=O)[C@H](CC(C)C)NC1=O) [SEQ. ID. NO. 9 (Ac-D-Phe^6 analog of Ac-hMCH(6-16)-NH2)]
510

What about XCMLGRVYRPC (HELM PEPTIDE1{[ac].[dK].C.M.L.G.R.V.Y.R.P.C.[am]}$PEPTIDE1,PEPTIDE1,3:R3-12:R3$$$V2.0; SMILES CSCC[C@@H]1NC(=O)[C@@H](NC(=O)[C@@H](CCCCN)NC(C)=O)CSSC[C@@H](C(N)=O)NC(=O)[C@@H]2CCCN2C(=O)[C@H](CCCNC(=N)N)NC(=O)[C@H](Cc2ccc(O)cc2)NC(=O)[C@H](C(C)C)NC(=O)[C@H](CCCNC(=N)N)NC(=O)CNC(=O)[C@H](CC(C)C)NC1=O) [SEQ. ID. NO. 13 (Ac-D-Lys^6 analog of Ac-hMCH(6-16)-NH2)] ?
2100

For XMLGRVYRPC (Ac-Arg^6 segment eliminated; Mpr, des-amino-cysteine (3-mercaptopropionic acid) at position 7 instead of Cys; C-terminal amide; disulfide ring) [SEQ. ID. NO. 15 (Δ(X^6-Cys^7), Mpr^7 analog of Ac-hMCH(6-16)-NH2)] then?
3100

Provenance of the data: patent US20050020492A1
